B1: SPOPL (parent)
chain: AKREETKAMESQRAYRFVQGKDWG

Variants of: B1
Experiment: protein stability index of a GFP-peptide fusion (GPS, HEK-293T) (PSI 1-6); higher = more stable;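 note: lentivirally expressed fusions sorted by FACS into six bins by GFP to DsRed ratio, PSI derived from sequencing read proportions per bin multiplied by bin number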
Conditions: c terminus: a fixed tail appended
Values of protein stability index greater than or equal to 4 map to Yes; values below map to No.

variant-spec | assigned-category
W23C | Yes
Q12M | No
A8C | No
G24D | Yes
F17N | Yes
Y15N | Yes
Y15P | Yes
W23L | Yes
Q19D | No
A14L | No
